Test system: U2OS
Assay: Multiplex assay against U2OS
Format: toxicity, cell-based
Details: human, 48 h, 1 µM, compound concentration 1 uM, replicate 2
property.measured: Population Tubulin-Different-Phenotype (%)

INSERT INTO assay_data (line_notation, system_tested, result) VALUES
  ('CCN1CCN(Cc2ccc(Nc3ncc(F)c(-c4cc(F)c5nc(C)n(C(C)C)c5c4)n3)nc2)CC1.CS(=O)(=O)O', 'U2OS', '84%'),
  ('CCCn1c(=O)c2[nH]c(-c3cnn(Cc4cccc(C(F)(F)F)c4)c3)nc2n(CC)c1=O', 'U2OS', '35%'),
  ('Cc1cc(C)c(S(=O)(=O)N(Cc2ccc(-c3cccc(S(C)(=O)=O)c3)cc2)Cc2ccc(C(F)(F)F)o2)c(C)c1', 'U2OS', '34%'),
  ('Cl.O=c1c2cccn2c2ccccc2n1CCCN1CCC(c2ccc(Cl)cc2)CC1', 'U2OS', '18%');

* * *

Listed here are molecules together with their documented Population Fragmented Nuclei (%).
Tested on: Fibroblast
Assay: Multiplex assay against human fibroblast
Assay type: toxicity, cell-based
Conditions: 24 h, 1 µM, compound concentration 1 uM, replicate 1
property.measured: Population Fragmented Nuclei (%)

INSERT INTO assay_data (molecule, system_tested, property_measured, scale_unit, numeric_value) VALUES
  ('CCn1cc(-c2ccnc3[nH]c(-c4cccc(CN(C)C)c4)cc23)c(-c2ccc(NC(=O)N(C)C)cc2)n1', 'Fibroblast', 'Population Fragmented Nuclei (%)', '%', 32),
  ('CNC(=O)c1ccc(Nc2nc(OC3CCCC3)c3c(-c4ccc5nc(C)oc5c4)c[nH]c3n2)c(OC)c1', 'Fibroblast', 'Population Fragmented Nuclei (%)', '%', 36),
  ('O=C(Nc1ccc(-c2ccnc(Nc3ccc(N4CCOCC4)cc3)n2)cc1)[C@@H]1CCCN1', 'Fibroblast', 'Population Fragmented Nuclei (%)', '%', 24),
  ('Cl.O=c1c2cccn2c2ccccc2n1CCCN1CCC(c2ccc(Cl)cc2)CC1', 'Fibroblast', 'Population Fragmented Nuclei (%)', '%', 28),
  ('CCc1cccc(CC)c1NC(=O)c1nn(C)c2c1CCc1cnc(Nc3ccc(C(=O)NC4CCN(C)CC4)cc3OC(F)(F)F)nc1-2', 'Fibroblast', 'Population Fragmented Nuclei (%)', '%', 23),
  ('Cc1ccc(C(=O)Nc2cccc(C(F)(F)F)c2)cc1Nc1nc(-c2cccnc2)nc2c1cnn2C', 'Fibroblast', 'Population Fragmented Nuclei (%)', '%', 40),
  ('COc1ccc(-c2ccc3c(N4CCOCC4)nc(N4C[C@@H](C)O[C@@H](C)C4)nc3n2)cc1CO', 'Fibroblast', 'Population Fragmented Nuclei (%)', '%', 33),
  ('COc1cc2ncnc(Nc3ccc(F)c(Cl)c3)c2cc1NC(=O)/C=C/CN1CCCCC1 [DACOMITINIB ANHYDROUS]', 'Fibroblast', 'Population Fragmented Nuclei (%)', '%', 28),
  ('CCCS(=O)(=O)c1nc(NC2CC2)cc(-c2ccc3c(ccn3C3CC(C)(C)NC(C)(C)C3)c2)n1', 'Fibroblast', 'Population Fragmented Nuclei (%)', '%', 33),
  ('CCNc1cc(N[C@H]2CC[C@H](O)CC2)nc(Nc2ccc3c(ccn3Cc3ccccc3)c2)n1', 'Fibroblast', 'Population Fragmented Nuclei (%)', '%', 45),
  ('CCc1cccc(CC)c1NC(=O)c1nn(C)c2c1CCc1cnc(Nc3ccc(N4CCN(C)CC4)cc3OC)nc1-2', 'Fibroblast', 'Population Fragmented Nuclei (%)', '%', 25),
  ('C=CCn1c(=O)c2cnc(Nc3ccc(N4CCN(C)CC4)cc3)nc2n1-c1cccc(C(C)(C)O)n1', 'Fibroblast', 'Population Fragmented Nuclei (%)', '%', 27),
  ('COc1ccc(S(=O)(=O)N(CCO)c2ccccc2CN(C)C/C=C/c2ccc(Cl)cc2)cc1.O=P(O)(O)O', 'Fibroblast', 'Population Fragmented Nuclei (%)', '%', 34),
  ('COC(=N)c1nc2ccc3ncnc(Nc4ccc(OC)cc4F)c3c2s1', 'Fibroblast', 'Population Fragmented Nuclei (%)', '%', 41),
  ('Cn1nc(C(F)(F)F)cc1-c1cnc(N2CCc3cc(S(=O)(=O)Nc4c(F)cc(Cl)cc4F)cc(N4CCCC4=O)c32)nc1', 'Fibroblast', 'Population Fragmented Nuclei (%)', '%', 19),
  ('CCOC(=O)c1c(C)[nH]c2ccc3c(c12)CN1CCc2cc(OC)ccc2C1O3 (configuration not stated)', 'Fibroblast', 'Population Fragmented Nuclei (%)', '%', 29),
  ('O=C(Nc1cccnn1)N1CCC(=Cc2cccc(Oc3ccc(C(F)(F)F)cn3)c2)CC1', 'Fibroblast', 'Population Fragmented Nuclei (%)', '%', 28),
  ('CCOc1cc(C(=O)N2CCC(N3CCN(C)CC3)CC2)ccc1Nc1ncc2c(n1)N(C1CCCC1)c1ccccc1C(=O)N2C', 'Fibroblast', 'Population Fragmented Nuclei (%)', '%', 29),
  ('CNc1cc(Oc2cc(C(=O)Nc3cc(N4CCN(C)CC4)cc(C(F)(F)F)c3)ccc2C)ncn1', 'Fibroblast', 'Population Fragmented Nuclei (%)', '%', 30),
  ('Cl.Oc1ccc2c3c1O[C@H]1c4[nH]c5c(c4C[C@@]4(O)[C@@H](C2)N(CC2CC2)CC[C@]314)C[C@@]1(O)[C@H]2Cc3ccc(O)c4c3[C@@]1(CCN2CC1CC1)[C@H]5O4', 'Fibroblast', 'Population Fragmented Nuclei (%)', '%', 19),
  ('S=C(NCCCc1c[nH]cn1)NCCCN(Cc1ccc(Cl)c(Cl)c1)c1ccc(Br)cn1', 'Fibroblast', 'Population Fragmented Nuclei (%)', '%', 32),
  ('Cl.O=C(c1ccc(Nc2nccc(-c3cc4ccccc4s3)n2)cc1)N1CCC(N2CCCC2)CC1', 'Fibroblast', 'Population Fragmented Nuclei (%)', '%', 44),
  ('CCN1CCN(c2ccc(Nc3cc(N(C)C(=O)Nc4c(Cl)c(OC)cc(OC)c4Cl)ncn3)cc2)CC1', 'Fibroblast', 'Population Fragmented Nuclei (%)', '%', 15),
  ('CN(C)C(=O)C(CCN1CCC(O)(c2ccc(Cl)cc2)CC1)(c1ccccc1)c1ccccc1.Cl [LOPERAMIDE HYDROCHLORIDE]', 'Fibroblast', 'Population Fragmented Nuclei (%)', '%', 22),
  ('COc1cccc2cc(-c3nc([C@H]4CC[C@H](C(=O)O)CC4)n4ncnc(N)c34)[nH]c12', 'Fibroblast', 'Population Fragmented Nuclei (%)', '%', 36),
  ('O=C(Nc1ccc(-n2nc(-c3cccnc3)cc2C(F)(F)F)cn1)c1ccc(-c2ccccc2)c(F)c1', 'Fibroblast', 'Population Fragmented Nuclei (%)', '%', 32),
  ('NC(=O)c1cccc(-c2cc(Nc3ccc(OC(F)(F)F)cc3)ncn2)c1', 'Fibroblast', 'Population Fragmented Nuclei (%)', '%', 26),
  ('O=C(Nc1ccc(Cl)cc1)Nc1cccc(-c2cccc(N3CCCC3)n2)c1', 'Fibroblast', 'Population Fragmented Nuclei (%)', '%', 31),
  ('CN1CCN(C(=O)C(C)(C)c2ccc(C(=O)Nc3cn4cc(-c5cc(C(C)(C)C)cc(C(C)(C)C)c5)ccc4n3)cc2)CC1', 'Fibroblast', 'Population Fragmented Nuclei (%)', '%', 31),
  ('O=C(Cc1ccc(-c2ccc(OCCN3CCOCC3)cc2)cn1)NCc1ccccc1', 'Fibroblast', 'Population Fragmented Nuclei (%)', '%', 29),
  ('Cc1ccc2nc(NCCN)c3ncc(C)n3c2c1.O=C(O)C(F)(F)F.O=C(O)C(F)(F)F', 'Fibroblast', 'Population Fragmented Nuclei (%)', '%', 22),
  ('C=C1/C(=C\C=C2/CCC[C@]3(C)[C@@H]([C@H](C)/C=C/[C@H](C)C(C)C)CC[C@@H]23)C[C@@H](O)C[C@@H]1O', 'Fibroblast', 'Population Fragmented Nuclei (%)', '%', 18);

* * *

Listed here are compounds together with their documented Population Hoechst High Intensity Objects (%).
System: U2OS
Experiment: Multiplex assay against U2OS
Type: toxicity, cell-based
Conditions: human, 12 h, 1 µM, compound concentration 1 uM, replicate 2
property.measured: Population Hoechst High Intensity Objects (%)

INSERT INTO measurements (compound, numeric_value) VALUES
  ('CCc1cccc(CC)c1NC(=O)c1nn(C)c2c1CCc1cnc(Nc3ccc(C(=O)NC4CCN(C)CC4)cc3OC(F)(F)F)nc1-2', 13),
  ('COc1ccc(S(=O)(=O)N(CCO)c2ccccc2CN(C)C/C=C/c2ccc(Cl)cc2)cc1.O=P(O)(O)O', 8),
  ('COc1cc2ncnc(Nc3ccc(F)c(Cl)c3)c2cc1NC(=O)/C=C/CN1CCCCC1 [DACOMITINIB ANHYDROUS]', 8),
  ('Cl.O=C(c1ccc(Nc2nccc(-c3cc4ccccc4s3)n2)cc1)N1CCC(N2CCCC2)CC1', 25);

* * *

System: U2OS
Assay: Multiplex assay against U2OS
Type: toxicity, cell-based
Settings: human, 12 h, 1 µM, compound concentration 1 uM, replicate 2
Binary call on Population Mitotic Cells (%) with cut-off 60%: strictly below means 1, and equality or higher means -1.

INSERT INTO results (molecule, category_label) VALUES
  ('C=CCn1c(=O)c2cnc(Nc3ccc(N4CCN(C)CC4)cc3)nc2n1-c1cccc(C(C)(C)O)n1', -1),
  ('Cl.O=c1c2cccn2c2ccccc2n1CCCN1CCC(c2ccc(Cl)cc2)CC1', 1),
  ('CN1CCC(=C2c3ccccc3CC(=O)c3sccc32)CC1.O=C(O)/C=C/C(=O)O [KETOTIFEN FUMARATE]', 1),
  ('O=C1N/C(=N/c2ccccc2F)S/C1=C\c1ccc(C(=O)O)cc1', -1),
  ('CNc1cc(Oc2cc(C(=O)Nc3cc(N4CCN(C)CC4)cc(C(F)(F)F)c3)ccc2C)ncn1', 1),
  ('O=C1NC(=O)C(c2cnc3ccccn23)=C1c1cn2c3c(cc(F)cc13)CN(C(=O)N1CCCCC1)CC2', 1);
